Test system: MDA-MB-231
Test: Anti-proliferative activity against human MDA-MB-231 cells assessed as reduction in cell proliferation incubated for 72 hrs
Assay type: functional, cell-based
Conditions: MDA-MB-231, 72 h
Measure: IC50 (nM)
Write down the numeric answer in nM and omit the unit.

Q) State its IC50 for this compound: Cc1sc2c(c1C)C(c1ccc(Cl)cc1)=N[C@@H](CC(=O)OC(C)(C)C)c1nnc(C)n1-2
A) 507

Data provenance: ChEMBL document CHEMBL5674875
